- Assay name: Volume of distribution at steady state in rat at 12 umol/kg, iv and 25.5 umol/kg, po
- Type: ADME, organism-based
- Condition description: in vivo, read-out: Vdss
Parameter measured: Vd (L/kg)
Respond with the bare value in L/kg.

State the recorded Vd for this entry: COCC1=C(C(=O)N2CCC[C@H]2c2cc(C)no2)[C@@H](c2cc3ccccc3n2C)n2nc(C(F)(F)F)cc2N1
1.9

----------
- Assay name: Drug degradation assessed as GSH adduct formation by fluorescence detection assay
- Assay type: physicochemical
Parameter measured: GSH adduct formation

Use the examples below as a reference point.
CC1=C(C(=O)N2CCC[C@H]2c2ccc(F)cc2)[C@@H](c2ccc(Cl)c(Cl)c2)n2nc(C)cc2N1 :: 5%
CC1=C(C(=O)N2CCC[C@H]2c2cc(C)no2)[C@@H](c2ccc(Cl)c(Cl)c2)n2nccc2N1 :: 21%
CC1=C(C(=O)N2CCC[C@H]2c2cc(C)no2)[C@@H](c2ccc(Cl)c(Cl)c2)n2nc(C)cc2N1 :: < 1%
CC1=C(C(=O)N2CCC[C@H]2c2cc(C)no2)[C@@H](c2ccc(Cl)c(Cl)c2)n2nc(C(F)(F)F)cc2N1 :: < 1%
CC1=C(C(=O)N2CCN(c3ccc(F)cc3)CC2)C(c2ccc(Cl)c(Cl)c2)n2nc(C)cc2N1 (racemic) :: < 1%
CC1=C(C(=O)N2CCC[C@H]2c2ccc(F)cc2)[C@@H](c2ccc(Cl)c(Cl)c2)n2nccc2N1 :: 33%

State the recorded GSH adduct formation for this entry: CC1=C(C(=O)N2CCN(c3ccc(F)cc3)CC2)C(c2ccc(Cl)c(Cl)c2)n2ncc(Cl)c2N1 (racemic)
4%

State the recorded GSH adduct formation for this entry: CC1=C(C(=O)N2CCC[C@H]2c2ccc(F)cc2)[C@@H](c2ccc(Cl)c(Cl)c2)n2ncc(C)c2N1
< 1%

----------
- System: Plasma
- Assay name: Plasma concentration in methoxamine-sensitised rabbit AERP model at 0.3 mg/kg, iv
- Format: ADME, organism-based, Oryctolagus cuniculus
- Set-up: dose 0.3 mg/kg, route intravenous
- Condition description: in vivo
Parameter measured: concentration

CC1=C(C(=O)N2CCC[C@H]2c2cc(C)no2)[C@@H](c2ccc(Cl)c(Cl)c2)n2nc(C(F)(F)F)cc2N1 :: 700 nM

Now let's try a different one.
State the recorded concentration for this entry: COCC1=C(C(=O)N2CCC[C@H]2c2cc(C)no2)[C@@H](c2cc3ccccc3n2C)n2nc(C(F)(F)F)cc2N1
300 nM

----------
- Assay name: Oral bioavailability in rat at 25.5 umol/kg
- Format: ADME, organism-based
- Condition description: in vivo
Parameter measured: bioavailability (%)
Respond with the bare value in %.

State the recorded bioavailability for this entry: COCC1=C(C(=O)N2CCC[C@H]2c2cc(C)no2)[C@@H](c2cc3ccccc3n2C)n2nc(C(F)(F)F)cc2N1
61

----------
- Assay name: Half life in rat at 12 umol/kg, iv and 25.5 umol/kg, po
- Type: ADME, organism-based
- Condition description: in vivo
Parameter measured: half-life (min)
Respond with the bare value in min.

State the recorded half-life for this entry: COCC1=C(C(=O)N2CCC[C@H]2c2cc(C)no2)[C@@H](c2cc3ccccc3n2C)n2nc(C(F)(F)F)cc2N1
150

----------
- Target system: hERG (KCNH2) (Homo sapiens, UniProt Q12809)
- Sequence (Q12809 whole entry): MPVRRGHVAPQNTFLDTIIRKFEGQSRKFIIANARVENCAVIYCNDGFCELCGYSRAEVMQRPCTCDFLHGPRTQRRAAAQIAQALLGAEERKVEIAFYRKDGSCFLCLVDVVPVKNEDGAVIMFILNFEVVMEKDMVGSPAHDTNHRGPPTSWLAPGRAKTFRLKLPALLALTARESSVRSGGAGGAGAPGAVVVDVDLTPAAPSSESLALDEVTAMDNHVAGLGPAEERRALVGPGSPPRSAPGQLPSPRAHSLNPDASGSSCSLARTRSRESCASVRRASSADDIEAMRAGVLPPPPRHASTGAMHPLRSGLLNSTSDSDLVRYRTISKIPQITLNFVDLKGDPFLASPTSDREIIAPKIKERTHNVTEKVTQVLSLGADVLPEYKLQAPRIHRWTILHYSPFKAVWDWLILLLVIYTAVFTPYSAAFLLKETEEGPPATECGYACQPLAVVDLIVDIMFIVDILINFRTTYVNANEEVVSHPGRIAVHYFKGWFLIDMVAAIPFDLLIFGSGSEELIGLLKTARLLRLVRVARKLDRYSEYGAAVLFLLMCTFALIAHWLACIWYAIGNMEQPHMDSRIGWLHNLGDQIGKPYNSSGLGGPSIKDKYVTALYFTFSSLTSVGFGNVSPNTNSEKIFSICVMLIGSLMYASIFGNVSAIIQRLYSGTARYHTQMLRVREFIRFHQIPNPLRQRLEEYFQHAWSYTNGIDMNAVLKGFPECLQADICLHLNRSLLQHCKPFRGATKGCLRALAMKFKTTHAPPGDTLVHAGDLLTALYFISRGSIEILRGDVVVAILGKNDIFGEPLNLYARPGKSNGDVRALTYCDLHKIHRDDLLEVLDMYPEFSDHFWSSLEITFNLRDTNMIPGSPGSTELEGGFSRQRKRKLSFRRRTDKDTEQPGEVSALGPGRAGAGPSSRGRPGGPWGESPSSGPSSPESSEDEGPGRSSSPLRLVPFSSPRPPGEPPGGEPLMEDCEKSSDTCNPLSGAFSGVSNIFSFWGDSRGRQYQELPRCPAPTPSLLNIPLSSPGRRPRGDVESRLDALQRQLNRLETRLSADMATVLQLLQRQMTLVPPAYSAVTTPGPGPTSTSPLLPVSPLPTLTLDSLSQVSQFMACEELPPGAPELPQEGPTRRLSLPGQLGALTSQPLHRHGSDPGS
- Assay name: Inhibition of human ERG expressed in HEK293 cells at 10 uM by patch clamp assay
- Type: cell-based
- Condition description: HEK293 cells expressing human ERG
Parameter measured: inhibition at 10 µM (%)
Respond with the bare value in %.

CC1=C(C(=O)N2CCC[C@H]2c2cc(C)no2)[C@@H](c2ccc(Cl)c(Cl)c2)n2nc(C(F)(F)F)cc2N1 :: 47
COCC1=C(C(=O)N2CCC[C@H]2c2cc(C)no2)[C@@H](c2ccc(Cl)c(Cl)c2)n2nccc2N1 :: 14
CC1=C(C(=O)N2CCC[C@H]2c2cc(C)no2)[C@@H](c2ccc(Cl)c(Cl)c2)n2nccc2N1 :: 41
CC1=C(C(=O)N2CCN(c3ccc(F)cc3)CC2)[C@@H](c2ccc(Cl)c(Cl)c2)n2nccc2N1 :: 42
CC1=C(C(=O)N2CCC[C@H]2c2cc(C)no2)[C@@H](c2ccc(Cl)c(Cl)c2)n2nc(C)cc2N1 :: 13
CC1=C(C(=O)N2CCC[C@H]2c2ccc(F)cc2)[C@@H](c2ccc(Cl)c(Cl)c2)n2nccc2N1 :: 30

State the recorded inhibition at 10 µM for this entry: CC1=C(C(=O)N2CCC[C@H]2c2ccc(F)cc2)[C@@H](c2ccc(Cl)c(Cl)c2)n2nc(C)cc2N1
10

State the recorded inhibition at 10 µM for this entry: COCC1=C(C(=O)N2CCC[C@H]2c2cc(C)no2)[C@@H](c2cc3ccccc3n2C)n2nc(C(F)(F)F)cc2N1
14

State the recorded inhibition at 10 µM for this entry: CC1=C(C(=O)N2CCN(c3ccc(F)cc3)CC2)C(c2ccc(Cl)c(Cl)c2)n2nc(C)cc2N1 (racemic)
60

State the recorded inhibition at 10 µM for this entry: CC1=C(C(=O)N2CCN(c3ccccc3)CC2)C(c2ccc(Cl)c(Cl)c2)n2nc(C)cc2N1 (racemic)
29

State the recorded inhibition at 10 µM for this entry: CC1=C(C(=O)N2CCC[C@H]2c2cc(C)no2)[C@@H](c2cc3ccccc3n2C)n2nc(C(F)(F)F)cc2N1
19

----------
- Assay name: Clearance in dog at 5.6 umol/kg, iv and 5.2 umol/kg, po
- Format: ADME, organism-based, Canis lupus familiaris
- Condition description: in vivo
Listed here: items and their measured clearance.
Respond with the bare value in mL/min/kg.

CC1=C(C(=O)N2CCC[C@H]2c2cc(C)no2)[C@@H](c2ccc(Cl)c(Cl)c2)n2nc(C(F)(F)F)cc2N1 :: 11

State the recorded clearance for this entry: COCC1=C(C(=O)N2CCC[C@H]2c2cc(C)no2)[C@@H](c2cc3ccccc3n2C)n2nc(C(F)(F)F)cc2N1
29

----------
- Assay name: Half life in dog at 5.6 umol/kg, iv and 5.2 umol/kg, po
- Assay type: ADME, organism-based, Canis lupus familiaris
- Condition description: in vivo
Parameter measured: half-life (h)
Respond with the bare value in h.

CC1=C(C(=O)N2CCC[C@H]2c2cc(C)no2)[C@@H](c2ccc(Cl)c(Cl)c2)n2nc(C(F)(F)F)cc2N1 :: 1.8

Now let's try a different one.
State the recorded half-life for this entry: COCC1=C(C(=O)N2CCC[C@H]2c2cc(C)no2)[C@@H](c2cc3ccccc3n2C)n2nc(C(F)(F)F)cc2N1
1.8

----------
- Assay name: Volume of distribution at steady state in rat at 12 umol/kg, iv and 26 umol/kg, po
- Format: ADME, organism-based
- Condition description: in vivo, read-out: Vdss
Parameter measured: Vd (L/kg)
Respond with the bare value in L/kg.

State the recorded Vd for this entry: CC1=C(C(=O)N2CCC[C@H]2c2cc(C)no2)[C@@H](c2ccc(Cl)c(Cl)c2)n2nc(C(F)(F)F)cc2N1
3
